FYI, the data here is from patent US20260209334A1.

target: T1, human IL-17A/F heterodimer, bacterially expressed construct (human, UniProt Q16552 40-155; Q96PD4 39-163, limits assumed); assay: BLI, VHH immobilized, IL-17 as analyte; apparent KD with avidity; µM as printed (Table 3 uses pM)
T1 construct: IL-17A unit with N68D, IL-17F unit with N83D and C137S, both with GSEDS spacer; already in the entries
T1 sequence (Q16552 40-155 N68D limits assumed, chain 1 of 2): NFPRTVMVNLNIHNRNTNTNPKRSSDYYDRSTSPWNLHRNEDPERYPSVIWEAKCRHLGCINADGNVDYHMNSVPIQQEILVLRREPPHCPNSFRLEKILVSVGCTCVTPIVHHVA
T1 sequence (Q96PD4 other isoform, or with tags, fused parts or gaps limits assumed, chain 2 of 2): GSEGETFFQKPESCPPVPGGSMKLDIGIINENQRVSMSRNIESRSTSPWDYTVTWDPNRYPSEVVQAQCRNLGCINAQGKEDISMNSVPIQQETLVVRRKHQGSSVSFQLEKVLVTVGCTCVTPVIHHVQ
pKd: −log10 of the molar value.
quantityMeasured: pKd

Bm18F11 with C-terminal Avi-Biotin-tag, biotinylated (VHH, biotin on the C-terminal Avi-tag (BirA), not shown: C-terminal Avi-Biotin-tag) VHH: QVQLVESGGDLVQAGGSLRLSCAASGLTGSSYAMGWFRQAPGKEREFVAAISWISGDTKYTDSVKGRFTMSRDNAKKQVYLEMNSLKPEDTAVYYCNDMPYGLDTRMDEYVYWGQGTQVTVSS :: ≥ 4.70

Please examine the following record next.
Could you tell me which pKd is on file for Re42B04 with C-terminal Avi-Biotin-tag, biotinylated (VHH, biotin on the C-terminal Avi-tag (BirA), not shown: C-terminal Avi-Biotin-tag) VHH: QVQLVESGGGLVQVGGSLRLSCEVSGLPVSSYAMGWFRQAPEKEREFVAAISWIGGDSRYAHFVKGRFTISRDNAKNTVHLQMDSLKPEDTAVYYCNDMPYGLDTRMDEYEYWGLGTQVTVSS ? ≥ 4.70
